// provenance: patent US20180185504A1

assayed system: T1, mfPRLR.mmh (soluble monomeric macaca fascicularis PRLR) (macaca fascicularis)
T1 construct: soluble monomeric PRLR protein; also called macaca fascicularis (mf) PRLR.mmh; monkey PRLR
T1 chain: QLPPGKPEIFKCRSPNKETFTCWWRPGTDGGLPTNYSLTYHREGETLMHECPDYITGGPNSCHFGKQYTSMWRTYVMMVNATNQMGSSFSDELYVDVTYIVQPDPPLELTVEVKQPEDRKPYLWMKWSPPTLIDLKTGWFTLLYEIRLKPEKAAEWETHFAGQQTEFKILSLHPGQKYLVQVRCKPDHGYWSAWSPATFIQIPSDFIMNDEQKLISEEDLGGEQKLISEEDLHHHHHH
measurement description: SPR (Biacore), antibody capture, 37 C
Procedure: Measurements were conducted on a T200 Biacore instrument. Kinetic association (kₐ) and dissociation (kd) rate constants were determined by processing and fitting the data to a 1:1 binding model using Scrubber 2.0 curve fitting software.
Recorded measurements of kon, one per entry
endpoint label: kon (M⁻¹ s⁻¹)

binder="H1H6795P (antibody, human IgG1, V domains shown, human IgG1 Fc (H1H)) VH: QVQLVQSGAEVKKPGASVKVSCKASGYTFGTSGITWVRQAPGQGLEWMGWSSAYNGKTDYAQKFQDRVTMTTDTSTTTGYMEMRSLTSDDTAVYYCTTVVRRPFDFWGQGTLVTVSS VL: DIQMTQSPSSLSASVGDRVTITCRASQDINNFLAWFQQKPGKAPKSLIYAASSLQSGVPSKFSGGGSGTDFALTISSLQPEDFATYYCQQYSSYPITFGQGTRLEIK" endpoint_label=kon numeric_value=973000
binder="H1H6762P (antibody, human IgG1, V domains shown, human IgG1 Fc (H1H)) VH: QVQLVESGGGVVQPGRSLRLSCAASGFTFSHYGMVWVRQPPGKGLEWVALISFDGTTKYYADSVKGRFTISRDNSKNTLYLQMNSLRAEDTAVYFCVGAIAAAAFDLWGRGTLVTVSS VL: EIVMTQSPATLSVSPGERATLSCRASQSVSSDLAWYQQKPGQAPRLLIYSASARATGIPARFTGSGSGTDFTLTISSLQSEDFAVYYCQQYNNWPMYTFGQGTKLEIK" endpoint_label=kon numeric_value=679000
